From: patent US9346770B2

Experiment results (relative activation fold) PPARδ listing for selected compounds.
target: PPARδ (Homo sapiens (Human), UniProt Q03181); experiment: Nuclear receptor reporter gene (luciferase) screening model, PPARδ activation in HepG2 cells; assay type: cell-based; conditions: 5 uM; HepG2; solvent control = 1
Sequence (Q03181 whole entry, species assumed): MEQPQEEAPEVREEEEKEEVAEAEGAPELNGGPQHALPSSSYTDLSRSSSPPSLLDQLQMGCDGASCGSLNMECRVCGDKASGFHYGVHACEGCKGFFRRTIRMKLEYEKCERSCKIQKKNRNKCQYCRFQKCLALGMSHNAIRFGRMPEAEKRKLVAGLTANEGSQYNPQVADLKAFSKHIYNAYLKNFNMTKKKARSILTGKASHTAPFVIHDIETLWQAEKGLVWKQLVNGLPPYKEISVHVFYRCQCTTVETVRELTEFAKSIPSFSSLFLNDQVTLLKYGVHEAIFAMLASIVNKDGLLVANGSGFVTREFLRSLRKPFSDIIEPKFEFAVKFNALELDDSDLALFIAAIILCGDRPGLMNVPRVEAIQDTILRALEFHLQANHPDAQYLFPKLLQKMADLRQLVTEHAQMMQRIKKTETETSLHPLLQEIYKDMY
Sequence (P19793 whole entry partner, species assumed): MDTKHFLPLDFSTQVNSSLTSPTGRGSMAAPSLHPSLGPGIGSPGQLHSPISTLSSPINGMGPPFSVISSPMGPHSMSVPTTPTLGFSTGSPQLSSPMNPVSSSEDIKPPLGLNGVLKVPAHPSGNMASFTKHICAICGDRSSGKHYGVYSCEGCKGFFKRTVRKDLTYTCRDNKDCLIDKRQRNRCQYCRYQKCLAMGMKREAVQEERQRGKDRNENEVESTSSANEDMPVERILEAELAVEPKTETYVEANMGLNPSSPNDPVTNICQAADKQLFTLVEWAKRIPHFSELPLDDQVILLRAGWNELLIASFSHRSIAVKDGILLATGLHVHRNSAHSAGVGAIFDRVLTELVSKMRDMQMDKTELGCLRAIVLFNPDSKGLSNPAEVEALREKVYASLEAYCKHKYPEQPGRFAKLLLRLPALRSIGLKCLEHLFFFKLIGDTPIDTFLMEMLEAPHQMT
Report the value in fold with no unit label.

Worked examples follow.
In [3]: df
Out[3]:
                              sample_smiles  reported_value
0  CCc1cc(OCCc2nc(-c3ccc(C)cc3)oc2C)ccc1CCC(=O)O            3.57
1  CCc1cc(OCCc2nc(-c3ccc(C(C)(C)C)cc3)oc2C)ccc1CCC(=O)O            4.22
2  CCc1cc(OCCc2nc(-c3ccc(C(N)=O)cc3)oc2C)ccc1CCC(=O)O            4.08
3  CCc1cc(OCCc2nc(-c3ccc(C#N)cc3)oc2C)ccc1CCC(=O)O            4.23
4  CCc1cc(OCCc2coc(-c3ccc(C(F)(F)F)cc3)n2)ccc1CCC(=O)O            1.45

Provide Experiment results (relative activation fold) PPARδ value for the following compound: CCc1cc(OCCc2nc(-c3ccc(-c4nnn[nH]4)cc3)oc2C)ccc1CCC(=O)O 1.27

Provide Experiment results (relative activation fold) PPARδ value for the following compound: CCc1cc(OCCc2nc(-c3ccc([N+](=O)[O-])cc3)oc2C)ccc1CCC(=O)O 3.60

Provide Experiment results (relative activation fold) PPARδ value for the following compound: CCc1cc(OCCc2nc(-c3ccc(F)cc3)oc2C)ccc1CCC(=O)O 1.33

Provide Experiment results (relative activation fold) PPARδ value for the following compound: CCc1cc(OCCc2nc(-c3ccc(C(F)(F)F)cc3)oc2C)ccc1CCC(=O)O 1.50

====

Target: PPARα (Homo sapiens (Human), UniProt Q07869)
Sequence (Q07869 whole entry, species assumed): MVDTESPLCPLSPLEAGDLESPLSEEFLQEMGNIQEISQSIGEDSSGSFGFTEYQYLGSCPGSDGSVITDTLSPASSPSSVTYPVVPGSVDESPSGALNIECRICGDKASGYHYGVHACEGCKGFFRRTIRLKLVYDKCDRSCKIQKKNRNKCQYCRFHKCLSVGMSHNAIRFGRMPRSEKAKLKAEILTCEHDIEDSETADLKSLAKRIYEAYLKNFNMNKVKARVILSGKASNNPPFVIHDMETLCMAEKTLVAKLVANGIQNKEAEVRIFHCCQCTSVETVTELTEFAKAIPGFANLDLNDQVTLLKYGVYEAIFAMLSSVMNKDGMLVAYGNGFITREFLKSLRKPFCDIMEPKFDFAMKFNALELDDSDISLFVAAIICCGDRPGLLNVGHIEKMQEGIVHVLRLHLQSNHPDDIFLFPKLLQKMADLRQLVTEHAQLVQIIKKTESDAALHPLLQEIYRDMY
Sequence (P19793 whole entry partner, species assumed): as the sequence (P19793 whole entry partner, species assumed) above
Assay: Nuclear receptor reporter gene (luciferase) screening model, PPARα activation in HepG2 cells
Format: cell-based
Conditions: 0.1 uM; HepG2; solvent control = 1
Text: Using a reporter gene method, a screening model for screening a nuclear receptor agonist in living cells is designed on the basis of the principal that a nuclear receptor can activate transcription of its downstream gene after being activated. […] The receptor being activated can induce the expression of the luciferase gene, while the amount of generated luciferase can be determined with its luminescent substrate. […]
Experiment results (relative activation fold) PPARα listing for selected compounds.
Write the numeric value and follow it with the unit.

                                   compound  reported_value
0  CCc1cc(OCCc2nc(-c3ccc(C(C)(C)C)cc3)oc2C)ccc1CCC(=O)O [Compound 4]       1.18 fold
1  CCc1cc(OCCc2nc(-c3ccc(C)cc3)oc2C)ccc1CCC(=O)O [Compound 5]       1.37 fold
2  CCc1cc(OCCc2nc(-c3ccc(C(N)=O)cc3)oc2C)ccc1CCC(=O)O [Compound 9]       1.32 fold
3  CCc1cc(OCCc2nc(-c3ccc([N+](=O)[O-])cc3)oc2C)ccc1CCC(=O)O [Compound 7]       1.42 fold
4  CCc1cc(OCCc2nc(-c3ccc(-c4nnn[nH]4)cc3)oc2C)ccc1CCC(=O)O [Compound 6]       1.27 fold
5  CCc1cc(OCCc2nc(-c3ccc(C#N)cc3)oc2C)ccc1CCC(=O)O [Compound 8]       1.48 fold
6  CCc1cc(OCCc2nc(-c3ccc(C(F)(F)F)cc3)oc2C)ccc1CCC(=O)O [Compound 3]       1.19 fold
7  CCc1cc(OCCc2nc(-c3ccc(F)cc3)oc2C)ccc1CCC(=O)O [Compound 1]       1.12 fold

Provide Experiment results (relative activation fold) PPARα value for the following compound: CCc1cc(OCCc2coc(-c3ccc(C(F)(F)F)cc3)n2)ccc1CCC(=O)O [Compound 2] 1.16 fold

====

target: PPARγ (Homo sapiens (Human), UniProt P37231); experiment: Nuclear receptor reporter gene (luciferase) screening model, PPARγ activation in HepG2 cells; format: cell-based; conditions: 10 uM; HepG2; solvent control = 1
Sequence (P37231 whole entry, species assumed): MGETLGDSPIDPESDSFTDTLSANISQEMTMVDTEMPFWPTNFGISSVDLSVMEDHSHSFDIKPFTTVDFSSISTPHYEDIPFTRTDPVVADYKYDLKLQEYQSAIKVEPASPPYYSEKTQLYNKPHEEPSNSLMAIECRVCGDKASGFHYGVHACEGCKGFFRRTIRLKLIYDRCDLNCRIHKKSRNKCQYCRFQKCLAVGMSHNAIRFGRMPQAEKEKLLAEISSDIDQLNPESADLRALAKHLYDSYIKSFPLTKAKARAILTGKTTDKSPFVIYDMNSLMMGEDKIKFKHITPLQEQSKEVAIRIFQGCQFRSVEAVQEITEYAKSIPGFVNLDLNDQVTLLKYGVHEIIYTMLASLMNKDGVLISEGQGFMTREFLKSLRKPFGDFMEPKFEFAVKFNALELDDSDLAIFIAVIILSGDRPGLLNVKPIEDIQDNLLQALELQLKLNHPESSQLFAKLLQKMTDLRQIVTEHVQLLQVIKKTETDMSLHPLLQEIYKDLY
Sequence (P19793 whole entry partner, species assumed): as the sequence (P19793 whole entry partner, species assumed) above
measurement-type: Experiment results (relative activation fold) PPARγ
Report the value in fold with no unit label.

Worked examples follow.
                              sample_smiles  reported_value
0  CCc1cc(OCCc2nc(-c3ccc(F)cc3)oc2C)ccc1CCC(=O)O            2.01
1  CCc1cc(OCCc2nc(-c3ccc(-c4nnn[nH]4)cc3)oc2C)ccc1CCC(=O)O            2.53
2  CCc1cc(OCCc2nc(-c3ccc(C(N)=O)cc3)oc2C)ccc1CCC(=O)O            4.26
3  CCc1cc(OCCc2nc(-c3ccc([N+](=O)[O-])cc3)oc2C)ccc1CCC(=O)O            4.35
4  CCc1cc(OCCc2nc(-c3ccc(C(C)(C)C)cc3)oc2C)ccc1CCC(=O)O            5.88
5  CCc1cc(OCCc2nc(-c3ccc(C(F)(F)F)cc3)oc2C)ccc1CCC(=O)O            2.06

Provide Experiment results (relative activation fold) PPARγ value for the following compound: CCc1cc(OCCc2nc(-c3ccc(C#N)cc3)oc2C)ccc1CCC(=O)O 4.24

Provide Experiment results (relative activation fold) PPARγ value for the following compound: CCc1cc(OCCc2nc(-c3ccc(C)cc3)oc2C)ccc1CCC(=O)O 4.11

Provide Experiment results (relative activation fold) PPARγ value for the following compound: CCc1cc(OCCc2coc(-c3ccc(C(F)(F)F)cc3)n2)ccc1CCC(=O)O 2.28

====

molecular target: PPARγ (Homo sapiens (Human), UniProt P37231); assay: Nuclear receptor reporter gene (luciferase) screening model, PPARγ activation in HepG2 cells; format: cell-based; details: 0.1 uM; HepG2; solvent control = 1
Given measured Experiment results (relative activation fold) PPARγ, output Met if it is greater than or equal to 3 fold and Not met if not.

In [3]: df
Out[3]:
                                   molecule  group
0  CCc1cc(OCCc2nc(-c3ccc(C(N)=O)cc3)oc2C)ccc1CCC(=O)O [Compound 9]    Met

Shift focus to the following entry.
Reported Experiment results (relative activation fold) PPARγ at or above 3 fold? CCc1cc(OCCc2nc(-c3ccc(C)cc3)oc2C)ccc1CCC(=O)O [Compound 5] Met

====

target: PPARγ (Homo sapiens (Human)); test: Nuclear receptor reporter gene (luciferase) screening model, PPARγ activation in HepG2 cells; type: cell-based; conditions: 0.01 uM; HepG2; solvent control = 1
measurement-type: Experiment results (relative activation fold) PPARγ

In [3]: df
Out[3]:
                              sample_smiles                   measured_on  reported_value
0  CCc1cc(OCCc2nc(-c3ccc(C(F)(F)F)cc3)oc2C)ccc1CCC(=O)O  PPARγ (Homo sapiens (Human))       1.30 fold

Provide Experiment results (relative activation fold) PPARγ value for the following molecule: CCc1cc(OCCc2nc(-c3ccc([N+](=O)[O-])cc3)oc2C)ccc1CCC(=O)O 1.86 fold

Provide Experiment results (relative activation fold) PPARγ value for the following molecule: CCc1cc(OCCc2nc(-c3ccc(-c4nnn[nH]4)cc3)oc2C)ccc1CCC(=O)O 1.02 fold

Provide Experiment results (relative activation fold) PPARγ value for the following molecule: CCc1cc(OCCc2coc(-c3ccc(C(F)(F)F)cc3)n2)ccc1CCC(=O)O 1.26 fold

Provide Experiment results (relative activation fold) PPARγ value for the following molecule: CCc1cc(OCCc2nc(-c3ccc(C)cc3)oc2C)ccc1CCC(=O)O 2.99 fold

Provide Experiment results (relative activation fold) PPARγ value for the following molecule: CCc1cc(OCCc2nc(-c3ccc(C#N)cc3)oc2C)ccc1CCC(=O)O 2.29 fold

Provide Experiment results (relative activation fold) PPARγ value for the following molecule: CCc1cc(OCCc2nc(-c3ccc(C(C)(C)C)cc3)oc2C)ccc1CCC(=O)O 3.78 fold

Provide Experiment results (relative activation fold) PPARγ value for the following molecule: CCc1cc(OCCc2nc(-c3ccc(C(N)=O)cc3)oc2C)ccc1CCC(=O)O 1.51 fold

Provide Experiment results (relative activation fold) PPARγ value for the following molecule: CCc1cc(OCCc2nc(-c3ccc(F)cc3)oc2C)ccc1CCC(=O)O 1.21 fold

====

biological target: PPARγ (Homo sapiens (Human), UniProt P37231); test: Nuclear receptor reporter gene (luciferase) screening model, PPARγ activation in HepG2 cells; conditions: HepG2 reporter gene, 6 concentrations
measurement-type: EC50 (nM)
Report the value in nM with no unit label.

Worked examples follow.
In [3]: df
Out[3]:
                              sample_smiles                               measured_on  measurement_units  reported_value
0  CCc1cc(OCCc2nc(-c3ccc(C(N)=O)cc3)oc2C)ccc1CCC(=O)O  PPARγ (Homo sapiens (Human), UniProt P37231)                 nM              47
1  CCc1cc(OCCc2nc(-c3ccc(C(C)(C)C)cc3)oc2C)ccc1CCC(=O)O  PPARγ (Homo sapiens (Human), UniProt P37231)                 nM              89

Please find the next compound below.
Provide EC50 value for the following compound: CCc1cc(OCCc2nc(-c3ccc(-c4nnn[nH]4)cc3)oc2C)ccc1CCC(=O)O 6760
